Target: activated protein C (aPC; protein C from human plasma, activated, SIGMA P-2200) (human, UniProt P04070 43-461)
Sequence (P04070 43-461): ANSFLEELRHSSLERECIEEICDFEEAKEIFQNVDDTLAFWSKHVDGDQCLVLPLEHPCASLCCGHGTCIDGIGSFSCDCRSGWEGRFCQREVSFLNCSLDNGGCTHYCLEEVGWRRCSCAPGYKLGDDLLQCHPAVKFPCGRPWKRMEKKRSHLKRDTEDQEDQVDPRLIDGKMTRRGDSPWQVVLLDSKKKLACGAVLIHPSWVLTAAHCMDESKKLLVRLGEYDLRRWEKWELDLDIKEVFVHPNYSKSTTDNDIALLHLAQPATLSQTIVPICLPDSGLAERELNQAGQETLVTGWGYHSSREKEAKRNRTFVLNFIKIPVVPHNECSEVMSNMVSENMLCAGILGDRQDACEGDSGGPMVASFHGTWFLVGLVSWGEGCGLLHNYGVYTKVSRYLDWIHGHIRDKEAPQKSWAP
Assay: cell-based or functional assay
observable: …ON SUPPRESSION RATE (%), EXPERIMENT 2 (APTT coagulation time, human plasma)

* anti-aPC antibody aPC#79 (hybridoma well No. 79) (antibody, IgG2b, V domains shown) VH: QVQLQQSGAELARPGASVKLSCKASGYTFTDSYMNWVKQRTGQGLEWIGEVYPETGNSYYNEKFKGKATLTADRSSKTAYMQLNSLTSEDSAVYFCTRGGTGFDYWGQGTTLTVSS VL: QIVLAQSPAIMSASLGERVTMTCTASSSVSSSYLHWYQQKPGSSPKAWIYSTSNLASGAPTRFSGSGSGTSYSLTISSMEAEDAATYYCHQYHRSPFTFGSGTKLEIK | 68.3
